- Assayed Target: EGFR Del19/T790M/C797S (Homo sapiens, UniProt P00533, C797S/DEL746-750/T790M)
- Sequence (P00533 with tags, fused parts or gaps DEL746-750/T790M/C797S): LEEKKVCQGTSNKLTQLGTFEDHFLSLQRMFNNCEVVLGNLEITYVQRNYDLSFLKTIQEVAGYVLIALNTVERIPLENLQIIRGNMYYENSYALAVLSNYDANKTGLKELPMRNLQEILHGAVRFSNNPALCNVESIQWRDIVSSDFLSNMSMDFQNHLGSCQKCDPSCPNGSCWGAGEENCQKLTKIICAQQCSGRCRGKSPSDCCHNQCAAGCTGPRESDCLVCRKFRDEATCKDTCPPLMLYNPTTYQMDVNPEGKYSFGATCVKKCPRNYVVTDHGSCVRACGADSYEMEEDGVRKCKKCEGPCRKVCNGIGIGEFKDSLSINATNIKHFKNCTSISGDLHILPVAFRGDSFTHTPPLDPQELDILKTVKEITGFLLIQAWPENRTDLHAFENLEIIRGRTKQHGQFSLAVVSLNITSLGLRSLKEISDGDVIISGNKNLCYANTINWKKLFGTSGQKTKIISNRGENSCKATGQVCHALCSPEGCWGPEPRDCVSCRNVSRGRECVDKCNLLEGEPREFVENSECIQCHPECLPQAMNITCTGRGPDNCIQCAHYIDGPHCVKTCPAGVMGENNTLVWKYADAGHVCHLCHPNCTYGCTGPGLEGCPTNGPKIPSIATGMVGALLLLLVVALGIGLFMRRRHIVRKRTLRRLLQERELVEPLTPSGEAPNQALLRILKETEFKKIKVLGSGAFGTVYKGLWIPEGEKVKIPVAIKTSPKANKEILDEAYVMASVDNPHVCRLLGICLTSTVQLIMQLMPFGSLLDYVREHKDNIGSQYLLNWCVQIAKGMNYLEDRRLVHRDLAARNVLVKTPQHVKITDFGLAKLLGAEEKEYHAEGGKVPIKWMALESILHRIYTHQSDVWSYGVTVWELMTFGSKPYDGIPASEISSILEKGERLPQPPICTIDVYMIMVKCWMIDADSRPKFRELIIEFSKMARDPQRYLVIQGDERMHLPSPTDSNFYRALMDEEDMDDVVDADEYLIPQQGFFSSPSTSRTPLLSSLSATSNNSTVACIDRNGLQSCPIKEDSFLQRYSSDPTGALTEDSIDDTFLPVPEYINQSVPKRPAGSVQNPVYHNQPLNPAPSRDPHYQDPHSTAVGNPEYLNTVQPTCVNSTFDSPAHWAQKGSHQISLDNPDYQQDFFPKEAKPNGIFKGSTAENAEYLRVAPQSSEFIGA
- Measurement Notes: Biochemical EGFR kinase inhibition assay (Lance Ultra TR-FRET), triple mutant del19/T790M/C797S
- Stated Conditions: IC50 Del19/T790M/C797S (nM), 100 μM ATP
Where a name gives a salt, the structure may show the parent alone.
Metric: IC50 (nM)
Answers are plain numbers, in nM.

Worked examples, 6 compounds total:
CC1(CO)CCN(c2cc(Nc3ccnc(-c4cnn(S(=O)(=O)C5CC5)c4)n3)ncc2C#Cc2ccc(CN3CCOCC3)s2)CC1 : 7
CN(C)C[C@H]1CC[C@@H](Nc2cc(Nc3ccnc(-c4cnn(S(=O)(=O)C5CC5)c4)n3)ncc2C#Cc2cnn(CC(F)F)c2)CC1 : 0.5
O=S(=O)(C1CC1)n1cc(-c2nccc(Nc3cc(NC[C@H]4CC[C@H](CO)CC4)c(C#CC4CC5CCC4O5)cn3)n2)cn1 (stereo partly shown) : 2.5
COC1(O)CCN(c2cc(Nc3ccnc(-c4cnn(S(=O)(=O)C5CC5)c4)n3)ncc2C#Cc2ncc(CN3CCOCC3)cn2)CC1 : 0.7
CC1(CO)CCN(c2cc(Nc3ccnc(-c4cnn(S(=O)(=O)C5CC5)c4)n3)ncc2C#CC2CCO[C@H]2C(F)(F)F)CC1 (stereo partly shown) : 1.8
Cn1cc(C#Cc2cnc(Nc3ccnc(-c4cnn(S(=O)(=O)C5CC5)c4)n3)cc2N[C@H]2CCC[C@H](O)C2)cn1 : 0.6

Your task in this section: give IC50 for each listed record.
1. CC(C)Nc1cc(Nc2ccnc(-c3cnn(S(=O)(=O)C4CC4)c3)n2)ncc1C#CCCCNC(=O)N1CCOCC1
2. O=S(=O)(C1CC1)n1cc(-c2nccc(Nc3cc(N[C@H]4CCC[C@H](O)C4)c(C#Cc4cnn(CCF)c4)cn3)n2)cn1
3. O=S(=O)(C1CC1)n1cc(-c2nccc(Nc3cc(N[C@H]4CC[C@@H](O)CC4)c(C#Cc4ncc(CN5CCOCC5)cn4)cn3)n2)cn1
4. O=C(N1CCC(C#Cc2cnc(Nc3ccnc(-c4cnn(S(=O)(=O)C5CC5)c4)n3)cc2NCC2CCC(CO)CC2)C1)C(F)(F)F (stereo not shown)
5. Cn1cc(C#Cc2cnc(Nc3ccnc(-c4cnn(S(=O)(=O)C5CC5)c4)n3)cc2N2CCCC(CF)C2)cn1 (stereo not shown)
6. CN(C)CC1(F)CCN(c2cc(Nc3ccnc(-c4cnn(S(=O)(=O)C5CC5)c4)n3)ncc2C#Cc2cnn(C)c2)CC1 [Example 293, formate]

1: 2.9; 2: 1.2; 3: 0.5; 4: 7.3; 5: 2.8; 6: 0.4

Output IC50 of CC1(CO)CCN(c2cc(Nc3ccnc(-c4cnn(S(=O)(=O)C5CC5)c4)n3)ncc2C#CC2(O)CCCOC2)CC1 (stereo not shown)
0.3

====

For each entry below, report its IC50 value.
- Assayed Target: EGFR Del19/C797S (Homo sapiens, UniProt P00533, C797S/DEL746-750)
- Sequence (P00533 with tags, fused parts or gaps DEL746-750/C797S): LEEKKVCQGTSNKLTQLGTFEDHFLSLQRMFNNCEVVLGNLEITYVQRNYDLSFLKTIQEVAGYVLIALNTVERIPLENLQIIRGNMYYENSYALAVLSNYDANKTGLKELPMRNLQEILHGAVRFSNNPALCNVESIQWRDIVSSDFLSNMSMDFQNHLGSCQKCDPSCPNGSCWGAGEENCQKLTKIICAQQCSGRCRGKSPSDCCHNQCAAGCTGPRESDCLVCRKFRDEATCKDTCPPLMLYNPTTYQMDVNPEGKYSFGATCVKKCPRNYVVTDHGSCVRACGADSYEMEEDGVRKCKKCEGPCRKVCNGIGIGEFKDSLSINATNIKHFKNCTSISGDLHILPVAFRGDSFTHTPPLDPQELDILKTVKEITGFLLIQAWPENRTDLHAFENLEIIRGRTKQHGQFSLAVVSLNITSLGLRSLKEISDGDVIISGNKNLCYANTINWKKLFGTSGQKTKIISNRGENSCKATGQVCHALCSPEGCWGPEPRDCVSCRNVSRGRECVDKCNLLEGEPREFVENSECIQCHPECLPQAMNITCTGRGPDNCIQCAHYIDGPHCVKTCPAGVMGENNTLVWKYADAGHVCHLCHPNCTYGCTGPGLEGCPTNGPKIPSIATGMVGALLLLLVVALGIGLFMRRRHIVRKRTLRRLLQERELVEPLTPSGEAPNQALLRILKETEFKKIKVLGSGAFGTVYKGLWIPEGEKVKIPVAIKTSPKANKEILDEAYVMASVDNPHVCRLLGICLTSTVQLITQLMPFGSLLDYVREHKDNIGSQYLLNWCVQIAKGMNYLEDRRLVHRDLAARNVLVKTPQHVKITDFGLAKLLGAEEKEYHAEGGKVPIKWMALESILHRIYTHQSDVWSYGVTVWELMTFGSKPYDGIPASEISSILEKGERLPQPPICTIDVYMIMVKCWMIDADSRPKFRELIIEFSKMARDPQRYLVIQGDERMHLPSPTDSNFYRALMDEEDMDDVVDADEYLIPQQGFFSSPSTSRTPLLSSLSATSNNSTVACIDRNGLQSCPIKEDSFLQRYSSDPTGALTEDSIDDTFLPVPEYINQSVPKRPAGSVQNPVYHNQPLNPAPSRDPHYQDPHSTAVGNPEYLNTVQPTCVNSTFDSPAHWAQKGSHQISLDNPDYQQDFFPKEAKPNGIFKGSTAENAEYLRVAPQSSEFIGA
- Measurement Notes: Biochemical EGFR kinase inhibition assay (Lance Ultra TR-FRET), double mutant del19/C797S
- Stated Conditions: IC50 Del19/C797S (nM), 100 μM ATP
Give bare numbers, in nM.

O=S(=O)(C1CC1)n1cc(-c2nccc(Nc3cc(N4CCC(F)CC4)c(C#Cc4cnn(C5CCOCC5)c4)cn3)n2)cn1 : 25.1
CNC1CCN(c2cc(Nc3ccnc(-c4cnn(S(=O)(=O)C5CC5)c4)n3)ncc2C#Cc2cnn(C)c2)CC1 : 107
Cc1nc(C#Cc2cnc(Nc3ccnc(-c4cnn(S(=O)(=O)C5CC5)c4)n3)cc2N[C@H]2CC[C@H](O)C2)cs1 : 197
Cn1cc(C#Cc2cnc(Nc3ccnc(-c4cnn(S(=O)(=O)C5CC5)c4)n3)cc2NC2CCCC(F)C2)cn1 (stereo not shown) : 123
CS(=O)(=O)N1CCC(C#Cc2cnc(Nc3ccnc(-c4cnn(S(=O)(=O)C5CC5)c4)n3)cc2NC2CCC(O)CC2)C1 (stereo not shown) : 1.4
CC(C)Nc1cc(Nc2ccnc(-c3cnn(S(=O)(=O)C4CC4)c3)n2)ncc1C#CCCCCC(=O)N1CCOCC1 : 143
CC(C)CCNC1CCN(c2cc(Nc3ccnc(-c4cnn(S(=O)(=O)C5CC5)c4)n3)ncc2C#Cc2cnn(C)c2)CC1 : 34.2
CC1(CO)CCN(c2cc(Nc3ccnc(-c4cnn(S(=O)(=O)C5CC5)c4)n3)ncc2C#CC2CCN(C(=O)C(F)(F)F)C2)CC1 (stereo not shown) : 1.2

Your task in this section: give IC50 for each listed record.
1. O=S(=O)(C1CC1)n1cc(-c2nccc(Nc3cc(N[C@H]4CC[C@@H](O)CC4)c(C#CC4C[C@@H]5CC[C@@H]4O5)cn3)n2)cn1 (stereo partly shown)
2. O=S(=O)(C1CC1)n1cc(-c2nccc(Nc3cc(N[C@H]4CC[C@@H](O)CC4)c(C#CC4COC4)cn3)n2)cn1
3. O=S(=O)(C1CC1)n1cc(-c2nccc(Nc3cc(N4CCC(F)(CO)CC4)c(C#Cc4cnn(C(F)(F)F)c4)cn3)n2)cn1
4. CN(C)C[C@@H]1CCCN(c2cc(Nc3ccnc(-c4cnn(S(=O)(=O)C5CC5)c4)n3)ncc2C#Cc2cnn(CCF)c2)C1
5. Cn1cc(C#Cc2cnc(Nc3ccnc(-c4cnn(S(=O)(=O)C5CC5)c4)n3)cc2N[C@H]2CC[C@@H](NCCF)CC2)cn1

[2.4, 0.6, 17.1, 11.2, 16.1]

====

- Assayed Target: EGFR Del19/T790M/C797S (Homo sapiens, UniProt P00533, C797S/DEL746-750/T790M)
- Measurement Notes: Biochemical EGFR kinase inhibition assay (Lance Ultra TR-FRET), triple mutant del19/T790M/C797S
- Stated Conditions: IC50 Del19/T790M/C797S (nM), 100 μM ATP
Metric: IC50 (nM)
Numbers only, in nM.

Worked examples, 5 compounds total:
CN(C)CC1(O)CCN(c2cc(Nc3ccnc(-c4cnn(S(=O)(=O)C5CC5)c4)n3)ncc2C#Cc2cnn(C)c2)CC1 [Example 315] : 3.7
CN(C)CCCn1cc(C#Cc2cnc(Nc3ccnc(-c4cnn(S(=O)(=O)C5CC5)c4)n3)cc2N2CCCC(CO)C2)cn1 (stereo not shown) [Example 122] : 0.5
O=S(=O)(C1CC1)n1cc(-c2nccc(Nc3cc(NC4CCC(O)CC4)c(C#CC4CCOC4)cn3)n2)cn1 (stereo not shown) [Example 198] : 0.5
CC1(CO)CCN(c2cc(Nc3ccnc(-c4cnn(S(=O)(=O)C5CC5)c4)n3)ncc2C#Cc2ccc(CN3CCOCC3)cc2)CC1 [Example 253] : 3.3
CN1CCC(C#Cc2cnc(Nc3ccnc(-c4cnn(S(=O)(=O)C5CC5)c4)n3)cc2NC2CCC(O)CC2)C1 (stereo not shown) [Example 181] : 0.1

Your task in this section: give IC50 for each listed record.
1. CN(C)CCNC1CCN(c2cc(Nc3ccnc(-c4cnn(S(=O)(=O)C5CC5)c4)n3)ncc2C#Cc2ccn(C)n2)CC1 [Example 142]
2. CC1(CO)CCN(c2cc(Nc3ccnc(-c4cnn(CC(F)F)c4)n3)ncc2C#Cc2cnn(C(F)(F)F)c2)CC1 [Example 267]

1: 0.4; 2: 1.9

====

- Assayed Target: EGFR L858R/T790M/C797S (Homo sapiens, UniProt P00533, C797S/L858R/T790M)
- Sequence (P00533 25-1210 T790M/C797S/L858R): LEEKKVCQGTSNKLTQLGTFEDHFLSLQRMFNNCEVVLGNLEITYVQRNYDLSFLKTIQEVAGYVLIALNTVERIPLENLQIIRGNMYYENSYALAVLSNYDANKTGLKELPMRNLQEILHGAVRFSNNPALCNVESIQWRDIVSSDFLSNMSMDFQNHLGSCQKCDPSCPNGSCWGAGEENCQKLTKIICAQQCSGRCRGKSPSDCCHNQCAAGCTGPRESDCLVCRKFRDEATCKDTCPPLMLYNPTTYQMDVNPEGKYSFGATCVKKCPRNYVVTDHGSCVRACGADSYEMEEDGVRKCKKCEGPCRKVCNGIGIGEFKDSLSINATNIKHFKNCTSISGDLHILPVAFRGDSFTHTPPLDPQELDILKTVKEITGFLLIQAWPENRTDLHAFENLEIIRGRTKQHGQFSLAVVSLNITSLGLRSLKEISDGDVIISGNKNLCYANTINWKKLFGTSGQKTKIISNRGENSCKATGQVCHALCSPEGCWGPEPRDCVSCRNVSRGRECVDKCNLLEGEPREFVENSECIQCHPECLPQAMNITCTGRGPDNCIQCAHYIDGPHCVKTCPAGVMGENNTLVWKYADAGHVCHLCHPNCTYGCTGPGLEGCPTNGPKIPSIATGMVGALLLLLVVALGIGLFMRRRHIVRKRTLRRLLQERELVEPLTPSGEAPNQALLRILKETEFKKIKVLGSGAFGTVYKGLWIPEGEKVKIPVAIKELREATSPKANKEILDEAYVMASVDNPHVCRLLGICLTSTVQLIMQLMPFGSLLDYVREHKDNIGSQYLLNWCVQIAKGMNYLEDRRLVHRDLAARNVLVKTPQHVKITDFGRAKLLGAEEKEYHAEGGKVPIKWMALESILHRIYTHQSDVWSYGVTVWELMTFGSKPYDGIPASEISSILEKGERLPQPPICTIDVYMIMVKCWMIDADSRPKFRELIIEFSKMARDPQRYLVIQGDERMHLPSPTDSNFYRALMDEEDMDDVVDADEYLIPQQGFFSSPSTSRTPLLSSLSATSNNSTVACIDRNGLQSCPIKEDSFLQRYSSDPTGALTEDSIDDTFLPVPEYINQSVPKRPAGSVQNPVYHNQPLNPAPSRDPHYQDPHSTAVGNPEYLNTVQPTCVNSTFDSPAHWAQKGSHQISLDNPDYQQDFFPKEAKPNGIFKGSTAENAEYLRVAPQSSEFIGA
- Measurement Notes: Biochemical EGFR kinase inhibition assay (Lance Ultra TR-FRET), triple mutant L858R/T790M/C797S
- Stated Conditions: IC50 L858R/T790M/C797S (nM), 100 μM ATP
Metric: IC50 (nM)
Answers are plain numbers, in nM.

Worked examples, 4 molecules total:
CN(C)C[C@H]1CC[C@@H](Nc2cc(Nc3ccnc(-c4cnn(S(=O)(=O)C5CC5)c4)n3)ncc2C#Cc2cnn(C(F)F)c2)CC1 : 1.3
CC1(CO)CCN(c2cc(Nc3ccnc(-c4cnn(S(=O)(=O)C5CC5)c4)n3)ncc2C#CC2(O)CCOC2)CC1 (stereo not drawn) : 0.2
O=S(=O)(C1CC1)n1cc(-c2nccc(Nc3cc(NC[C@H]4CC[C@H](O)CC4)c(C#Cc4cnn(C(F)F)c4)cn3)n2)cn1 : 35.1
Cn1ccc(C#Cc2cnc(Nc3ccnc(-c4cnn(S(=O)(=O)C5CC5)c4)n3)cc2N[C@H]2CC[C@@H](O)CC2)n1 : 1.6

Your task in this section: give IC50 for each listed record.
1. CC1(C#Cc2cnc(Nc3ccnc(-c4cnn(S(=O)(=O)C5CC5)c4)n3)cc2NC[C@H]2CC[C@H](O)CC2)CC1
2. O=C(c1ccc(C#Cc2cnc(Nc3ccnc(-c4cnn(S(=O)(=O)C5CC5)c4)n3)cc2N2CCC[C@@H](O)C2)cc1)N1CCC(O)CC1

50.3
1.5

====

For each entry below, report its log10(IC50) value.
- Assayed Target: EGFR Del19/C797S (Homo sapiens, UniProt P00533, C797S/DEL746-750)
- Measurement Notes: Biochemical EGFR kinase inhibition assay (Lance Ultra TR-FRET), double mutant del19/C797S
- Stated Conditions: IC50 Del19/C797S (nM), 100 μM ATP
Where a name gives a salt, the structure may show the parent alone.
Could you please treat all values as log10 of IC50 in nM?

Worked examples, 3 compounds total:
CN(C)C[C@H]1CC[C@@H](Nc2cc(Nc3ccnc(-c4cnn(S(=O)(=O)C5CC5)c4)n3)ncc2C#Cc2cnn(CC(F)F)c2)CC1 : 0.26
CN1CCN(Cc2ccc(C#Cc3cnc(Nc4ccnc(-c5cnn(S(=O)(=O)C6CC6)c5)n4)cc3N3CCC(C)(CO)CC3)cn2)CC1 : -0.22
Cn1cc(C#Cc2cnc(Nc3ccnc(-c4cnn(S(=O)(=O)C5CC5)c4)n3)cc2N2CCC(NS(C)(=O)=O)CC2)cn1 : 1.36

Your task in this section: give log10(IC50) for each listed record.
1. CC1(O)CC2(CCN(c3cc(Nc4ccnc(-c5cnn(S(=O)(=O)C6CC6)c5)n4)ncc3C#Cc3cnn(CC(F)(F)F)c3)CC2)C1
2. O=S(=O)(C1CC1)n1cc(-c2nccc(Nc3cc(N[C@H]4CCC[C@H](O)C4)c(C#Cc4cnn(C(F)(F)F)c4)cn3)n2)cn1
3. CN(C)CC1(F)CCN(c2cc(Nc3ccnc(-c4cnn(S(=O)(=O)C5CC5)c4)n3)ncc2C#Cc2cnn(C)c2)CC1 [Example 293, formate]
4. CC1(CO)CCN(c2cc(Nc3ccnc(-c4cnn(S(=O)(=O)C5CC5)c4)n3)ncc2C#Cc2ccc(CN3CCOCC3)nc2)CC1
5. Cn1cc(C#Cc2cnc(Nc3ccnc(-c4cnn(S(=O)(=O)C5CC5)c4)n3)cc2N2CCCC(CF)C2)cn1 (centres unmarked)
6. O=S(=O)(C1CC1)n1cc(-c2nccc(Nc3cc(N4CCC[C@H](O)C4)c(C#Cc4cnn(C(F)(F)F)c4)cn3)n2)cn1
7. CC1(CO)CCN(c2cc(Nc3ccnc(-c4cnn(S(=O)(=O)C5CC5)c4)n3)ncc2C#Cc2ccc(CN3CCOCC3)cc2)CC1

1. 0.92
2. 1.94
3. 0.81
4. -0.05
5. 1.70
6. 1.39
7. 0.85

Your task in this section: give log10(IC50) for each listed record.
1. O=S(=O)(C1CC1)n1cc(-c2nccc(Nc3cc(N4CCC5(CCCO5)CC4)c(C#Cc4ncc(CN5CCOCC5)cn4)cn3)n2)cn1
2. C#Cc1cnc(Nc2ccnc(-c3cnn(S(=O)(=O)C4CC4)c3)n2)cc1N1CCC(C)(CO)CC1
3. CC1(O)CCN(c2cc(Nc3ccnc(-c4cnn(S(=O)(=O)C5CC5)c4)n3)ncc2C#CC2CCS(=O)(=O)C2)CC1 (centres unmarked)

0.64
0.23
0.53

Your task in this section: give log10(IC50) for each listed record.
1. Cn1cc(C#Cc2cnc(Nc3ccnc(-c4cnn(S(=O)(=O)C5CC5)c4)n3)cc2N2CCC(N3CC(F)(F)C3)CC2)cn1
2. CC(C)Nc1cc(Nc2ccnc(-c3cnn(S(=O)(=O)C4CC4)c3)n2)ncc1C#CCCCCNC(=O)N1CCOCC1
3. O=S(=O)(C1CC1)n1cc(-c2nccc(Nc3cc(NC4CCC(CO)CC4)c(C#CC4CCOC4C(F)(F)F)cn3)n2)cn1 (centres unmarked)
4. O=C(c1ccc(C#Cc2cnc(Nc3ccnc(-c4cnn(S(=O)(=O)C5CC5)c4)n3)cc2NC[C@H]2CC[C@H](CO)CC2)cc1)N1CCC(O)CC1
5. CC1(CO)CCN(c2cc(Nc3ccnc(-c4cnn(S(=O)(=O)C5CC5)c4)n3)ncc2C#Cc2nc(C(F)(F)F)cs2)CC1
6. CN(C)CCn1cc(C#Cc2cnc(Nc3ccnc(-c4cnn(S(=O)(=O)C5CC5)c4)n3)cc2N2CCC(C)(CO)CC2)cn1

[1.47, 2.08, 0.91, 1.73, 1.35, -0.22]

Your task in this section: give log10(IC50) for each listed record.
1. CC1(CO)CCN(c2cc(Nc3ccnc(Nc4ccccc4S(C)(=O)=O)n3)ncc2C#Cc2cnn(C(F)F)c2)CC1
2. COC1CCN(c2cc(Nc3ccnc(-c4cnn(S(=O)(=O)C5CC5)c4)n3)ncc2C#Cc2cnn(C3CCOCC3)c2)CC1
3. O=S(=O)(C1CC1)n1cc(-c2nccc(Nc3cc(N4CC[C@@H](O)C4)c(C#Cc4cnn(CCF)c4)cn3)n2)cn1
4. O=S(=O)(C1CC1)n1cc(-c2nccc(Nc3cc(N[C@@H]4CCC[C@H](O)C4)c(C#Cc4cnn(CCF)c4)cn3)n2)cn1
5. CC1(CO)CCN(c2cc(Nc3ccnc(-c4cnn(S(=O)(=O)C5CC5)c4)n3)ncc2C#Cc2ccc(CN3CCOCC3)cn2)CC1
6. O=C(N1CCC(C#Cc2cnc(Nc3ccnc(-c4cnn(S(=O)(=O)C5CC5)c4)n3)cc2NC2CCC(CO)CC2)C1)C(F)(F)F (centres unmarked)
7. O=C(c1ccc(C#Cc2cnc(Nc3ccnc(-c4cnn(S(=O)(=O)C5CC5)c4)n3)cc2N2CCC[C@H](O)C2)cc1)N1CCC(O)CC1

1. 2.05
2. 1.32
3. 1.07
4. 0.93
5. -0.10
6. 0.32
7. 0.30
